The measured values listed here are drawn from patent US9156827B2.

target: pim-1 kinase (Homo sapiens, UniProt P11309); assay: Measurement of pim-1 kinase inhibitory activity (fluorescent substrate peptide, capillary electrophoresis); assay type: biochemical; conditions: 0.1 μM of each compound, 30 μM ATP, 1.5 μM substrate peptide, room temperature 2 hours; Table 2
Sequence (P11309 whole entry): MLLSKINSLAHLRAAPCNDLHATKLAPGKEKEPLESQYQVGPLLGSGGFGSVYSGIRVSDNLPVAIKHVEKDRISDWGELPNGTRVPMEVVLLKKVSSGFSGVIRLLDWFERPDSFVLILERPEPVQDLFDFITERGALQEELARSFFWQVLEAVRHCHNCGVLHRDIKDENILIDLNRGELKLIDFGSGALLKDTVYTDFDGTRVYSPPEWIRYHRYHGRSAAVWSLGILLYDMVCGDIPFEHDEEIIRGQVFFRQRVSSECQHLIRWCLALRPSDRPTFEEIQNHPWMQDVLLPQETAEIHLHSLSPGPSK
readout-name: inhibition at 0.1 µM (%)

molecule	inhibition at 0.1 µM (%)
COc1ccc2c(c1OC1CCNCC1)O/C(=C\c1n[nH]c3ccccc13)C2=O [Compound B35]	97
O=C1/C(=C/c2n[nH]c3ccccc23)Oc2c(CN3CCNCC3)cccc21 [Compound B45]	79
COc1ccc2c(c1C#CCC1CCNCC1)O/C(=C\c1n[nH]c3ccccc13)C2=O [Compound B58]	90

(A) COc1ccc2c(c1Cc1c(C)n[nH]c1C)O/C(=C\c1n[nH]c3ccccc13)C2=O [Compound B73]
(B) COc1ccc2c(c1/C=C\CC1CCNCC1)O/C(=C\c1n[nH]c3ccccc13)C2=O [Compound B59]
## Task Endpoint returns whichever of A and B has the numerically higher inhibition at 0.1 µM. // respond with label for picked entry
## Result B
(B: 96%, A: 49%)
